These measurements were taken from patent US12595253B2.

experiment: Dog pharmacokinetic study (intravenous and oral); assay type: in vivo; conditions: plasma, Beagle dogs, oral, 20 mg/kg, solution
readout type: bioavailability (%)
A number alone suffices; assume %.

Entry Cc1cnc(Nc2cnn(CC#N)c2)nc1-c1ccc(C(=O)NCC#N)cc1 [Example 4] ; bioavailability = 1.8

###

assay: Rat pharmacokinetic study (intravenous and oral); format: in vivo; conditions: male, plasma, Sprague-Dawley rats, intravenous, 1 mg/kg, solution
Param label: returns criterion met when Vd < 0.6 L/kg, returns criterion not met otherwise, including exact equality.

Worked set:
• Cc1cnc(Nc2cnn(C)c2)nc1-c1ccc(C(=O)N[C@@H](C)C#N)cc1 = criterion not met
• Cc1cnc(Nc2cnn(CC(F)(F)F)c2)nc1-c1ccc(C(=O)NCC#N)cc1 = criterion not met
• Cc1cnc(Nc2cnn(C3CCN(C(=O)C4CC4)CC3)c2)nc1-c1ccc(C(=O)NCC#N)cc1 = criterion met
• Cc1cnc(Nc2cnn(CC#N)c2)nc1-c1ccc(C(=O)NCC#N)cc1 = criterion met

q: Threshold test, Vd < 0.6 L/kg: `C[C@@H](C#N)NC(=O)c1ccc(-c2nc(Nc3cnn(C4CCOCC4)c3)ncc2Cl)cc1`
a: criterion not met

q: Threshold test, Vd < 0.6 L/kg: `Cc1cnc(Nc2cnn(C3CCN(C(=O)C4(C)CC4)CC3)c2)nc1-c1ccc(C(=O)NCC#N)cc1`
a: criterion met

q: Threshold test, Vd < 0.6 L/kg: `Cc1cnc(Nc2cnn(C)c2)nc1-c1ccc(C(=O)NCC2(C#N)CC2)cc1`
a: criterion not met

###

molecular target: JAK2V617F (Homo sapiens, UniProt O60674, V617F); assay: JAK2V617F microfluidic kinase assay (Caliper EZ Reader II, FAM labeled peptide substrate); details: JAK2V617F 2.5 nM, 1 mM ATP
Sequence (O60674 whole entry V617F): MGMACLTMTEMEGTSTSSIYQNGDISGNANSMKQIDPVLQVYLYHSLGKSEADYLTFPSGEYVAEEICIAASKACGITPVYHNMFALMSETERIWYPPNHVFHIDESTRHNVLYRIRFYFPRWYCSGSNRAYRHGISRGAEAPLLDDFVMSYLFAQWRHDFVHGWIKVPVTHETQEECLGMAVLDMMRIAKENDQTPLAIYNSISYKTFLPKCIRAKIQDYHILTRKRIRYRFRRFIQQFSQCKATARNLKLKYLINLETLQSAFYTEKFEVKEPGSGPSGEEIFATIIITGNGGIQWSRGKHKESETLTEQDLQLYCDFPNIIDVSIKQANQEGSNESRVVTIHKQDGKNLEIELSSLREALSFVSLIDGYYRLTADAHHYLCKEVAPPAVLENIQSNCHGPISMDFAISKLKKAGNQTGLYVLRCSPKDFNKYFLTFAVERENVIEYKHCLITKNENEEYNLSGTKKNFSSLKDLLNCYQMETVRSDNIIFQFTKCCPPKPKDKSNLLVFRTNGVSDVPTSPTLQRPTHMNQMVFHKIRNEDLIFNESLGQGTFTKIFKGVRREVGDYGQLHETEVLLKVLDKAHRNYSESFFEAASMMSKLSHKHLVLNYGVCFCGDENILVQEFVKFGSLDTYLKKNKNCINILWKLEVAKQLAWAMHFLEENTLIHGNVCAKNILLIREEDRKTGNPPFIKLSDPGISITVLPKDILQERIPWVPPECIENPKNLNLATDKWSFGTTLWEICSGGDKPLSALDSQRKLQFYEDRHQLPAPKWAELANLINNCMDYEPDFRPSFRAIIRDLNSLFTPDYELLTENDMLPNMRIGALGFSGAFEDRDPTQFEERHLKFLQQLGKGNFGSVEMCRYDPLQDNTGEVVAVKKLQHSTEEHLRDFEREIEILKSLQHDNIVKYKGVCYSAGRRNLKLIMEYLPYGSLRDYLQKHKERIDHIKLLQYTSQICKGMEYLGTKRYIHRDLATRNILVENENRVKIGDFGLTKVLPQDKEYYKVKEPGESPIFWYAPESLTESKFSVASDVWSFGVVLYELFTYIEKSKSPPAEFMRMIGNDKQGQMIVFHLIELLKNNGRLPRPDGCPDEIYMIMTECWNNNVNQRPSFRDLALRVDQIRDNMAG
Reported values of pIC50 for individual entries
Notebook: values listed as pIC50 are -log10 of the concentration (mol/L).

Before answering, review these 5 worked examples.
* Cc1cnc(Nc2cnn(C3CCN(C(=O)C4(F)CC4)CC3)c2)nc1-c1ccc(C(=O)NCC#N)cc1 [Example 152] | 9.17
* Cc1cnc(Nc2cnn(C3CCN(C(=O)NC(C)(C)C)CC3)c2)nc1-c1ccc(C(=O)NCC#N)cc1 [Example 3] | 8.28
* Cc1cnc(Nc2cnn(C3C[C@H]4CC[C@@H](C3)O4)c2)nc1-c1ccc(C(=O)N[C@@H](C)C#N)cc1 (stereo partly shown) [Example 70] | 8.14
* Cc1cnc(Nc2cnn(C3CCOCC3)c2)nc1-c1ccc(C(=O)N[C@H](C)C#N)cc1 [Example 96] | 7.07
* C[C@H](C#N)NC(=O)c1ccc(-c2nc(Nc3cnn(C4CC4)c3)ncc2Cl)cc1 [Example 196] | 7.15

Assay JAK2V617F (Homo sapiens, UniProt O60674, V617F), sample CCCn1cc(Nc2ncc(Cl)c(-c3ccc(C(=O)N[C@@H](C)C#N)cc3)n2)cn1 [Example 227] , pIC50 read: 7.75

Assay JAK2V617F (Homo sapiens, UniProt O60674, V617F), sample CC[C@@H](C#N)NC(=O)c1ccc(-c2nc(Nc3cnn(C(C)C(F)(F)F)c3)ncc2C)cc1 (stereo partly shown) [Example 195] , pIC50 read: 7.21

Assay JAK2V617F (Homo sapiens, UniProt O60674, V617F), sample CC[C@@H](C#N)NC(=O)c1ccc(-c2nc(Nc3cnn(C4CCOCC4)c3)ncc2Cl)cc1 [Example 203] , pIC50 read: 8.51

Assay JAK2V617F (Homo sapiens, UniProt O60674, V617F), sample Cc1cnc(Nc2cnn(C3CCN(C(=O)C(C)(C)O)CC3)c2)nc1-c1ccc(C(=O)NCC#N)cc1 [Example 51] , pIC50 read: 9.29

Assay JAK2V617F (Homo sapiens, UniProt O60674, V617F), sample CC(C)(C)C(=O)N1CCC(n2cc(Nc3ncc(F)c(-c4ccc(C(=O)NCC#N)cc4)n3)cn2)CC1 [Example 56] , pIC50 read: 7.28

Assay JAK2V617F (Homo sapiens, UniProt O60674, V617F), sample Cc1cnc(Nc2cnn(C3C[C@@H](C)O[C@@H](C)C3)c2)nc1-c1ccc(C(=O)N[C@@H](C)C#N)cc1 (stereo partly shown) [Example 73] , pIC50 read: 8.09

Assay JAK2V617F (Homo sapiens, UniProt O60674, V617F), sample Cc1cnc(Nc2cnn(CC(C)(C)C#N)c2)nc1-c1ccc(C(=O)NCC(F)(F)F)cc1 [Example 81] , pIC50 read: 6.94
